Value source: patent US9512107B2

# target or system: IDH2 R172K (Homo sapiens, UniProt P48735, R172K)
# measurement protocol: IDH2 R172K enzymatic assay (NADPH cofactor depletion, diaphorase/resazurin readout)
# assay context: read-out: Enz R172K
Entries and their measured IC50 follow.

COc1ccc(F)c(-c2nc(Nc3ccnc(C(F)(F)F)c3)nc(NC(C)C)n2)c1 [Compound 630] | < 100 nM
Cc1nc(-c2nc(Nc3cccc(F)c3)nc(NC(C)C)n2)co1 [Compound 471] | 100 to 1000 nM
CC(C)Nc1nc(Nc2cc(F)cc(F)c2)nc(-c2cccc(C(C)(F)F)n2)n1 [Compound 583] | < 100 nM
CC(C)COC(=O)Nc1nc(Nc2ccccc2)nc(-c2ccccc2)n1 [Compound 179] | < 100 nM
CC(C)Nc1nc(Nc2cc(Cl)cc(S(C)(=O)=O)c2)nc(-c2cccc(C(F)(F)F)n2)n1 [Compound 561] | < 100 nM

IN: I have this compound here, CC(C)(O)CNc1nc(Nc2cc(F)cc(F)c2)nc(-c2cccc(N)n2)n1 [Compound 691] , and I need its recorded IC50.
OUT: 100 to 1000 nM

IN: // query: COc1cccc(-c2nc(Nc3ccnc(C(F)(F)F)c3)nc(NC3COC3)n2)c1F [Compound 624]
OUT: 100 to 1000 nM

IN: // query: CC(C)Nc1nc(Nc2ccccc2)nc(-c2ccncc2)n1 [Compound 156]
OUT: 1000 to 10000 nM

IN: // query: CC(C)Nc1nc(Nc2ccnc(C(F)(F)F)c2)nc(-c2cccc(=O)[nH]2)n1 [Compound 650]
OUT: 1000 to 10000 nM

----------
# System: U87MG pLVX-IDH2 R140Q-neo cells
# measurement protocol: U87MG pLVX-IDH2 R140Q-neo cell based assay, 2-HG in media by LC-MS at 48 hours
# assay context: Homo sapiens, U-87 MG
pIC50: −log10 of the molar value.
Entries and their measured pIC50 follow.

CC(C)Nc1nc(Nc2ccnc(C(F)(F)F)c2)nc(-c2ccccc2)n1 [Compound 202] | > 7.00

IN: I have this molecule here, N#Cc1cc(Nc2nc(NCC3CCCO3)nc(-c3cccc(C(F)(F)F)n3)n2)ccn1 (centres unmarked) [Compound 403] , and I need its recorded pIC50.
OUT: > 7.00

IN: // query: c1ccc(-c2nc(NCC3CCC3)nc(Nc3ccncc3)n2)cc1 [Compound 250]
OUT: 6.00 to 7.00

IN: // query: CC(C)Nc1nc(Nc2ccnc(Cl)c2)nc(-c2cccc(Cl)n2)n1 [Compound 354]
OUT: > 7.00

----------
# target or system: IDH2 R140Q (Homo sapiens, UniProt P48735, R140Q)
# Sequence (P48735 40-452 R140Q): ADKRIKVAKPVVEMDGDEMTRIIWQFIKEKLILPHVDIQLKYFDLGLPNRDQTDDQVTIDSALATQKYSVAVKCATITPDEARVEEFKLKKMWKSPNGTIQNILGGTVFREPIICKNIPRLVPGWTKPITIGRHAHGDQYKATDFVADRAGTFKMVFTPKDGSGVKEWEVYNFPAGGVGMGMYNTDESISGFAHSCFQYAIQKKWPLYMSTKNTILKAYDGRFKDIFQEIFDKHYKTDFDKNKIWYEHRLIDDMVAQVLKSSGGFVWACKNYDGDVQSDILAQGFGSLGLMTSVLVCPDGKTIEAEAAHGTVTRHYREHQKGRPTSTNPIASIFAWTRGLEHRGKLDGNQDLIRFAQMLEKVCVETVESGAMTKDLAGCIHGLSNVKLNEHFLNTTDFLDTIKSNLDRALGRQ
# measurement protocol: IDH2 R140Q enzymatic assay (cofactor depletion, similar format)
# Type: biochemical
# assay context: read-out: Enz R140Q
observed property: IC50

The cases that follow already have their IC50 on record.
Clc1cccc(Nc2nc(NC3CCOCC3)nc(-c3ccccc3)n2)c1 | < 0.1 µM
Fc1ccc(Nc2nc(NC3[C@H]4COC[C@@H]34)nc(-c3ccccc3F)n2)cn1 (stereo partly drawn) | 0.1 to 1 µM
Fc1cncc(Nc2nc(NC3CCC3)nc(-c3cccc(Cl)n3)n2)c1 | 0.1 to 1 µM
CC(C)(C)Nc1nc(Nc2cc(F)cc(S(C)(=O)=O)c2)nc(-c2cccc(C(F)(F)F)n2)n1 | 0.1 to 1 µM
c1ccc(Nc2nc(N[C@@H]3C[C@@H]4CC[C@H]3C4)nc(-c3ccccc3)n2)cc1 | 0.1 to 1 µM

IN: // map CC(O)C(=O)Nc1nc(Nc2ccccc2)nc(-c2ccccc2)n1 (stereo not drawn) to recorded IC50 (system: IDH2 R140Q (Homo sapiens, UniProt P48735, R140Q))
OUT: 0.1 to 1 µM

IN: // query: CC(C)Nc1nc(Nc2ccccn2)nc(-c2ccccc2)n1
OUT: 0.1 to 1 µM

IN: // query: O=C(Nc1nc(Nc2ccccc2)nc(-c2ccccc2)n1)C1CCOC1 (stereo not drawn)
OUT: > 10 µM

IN: // query: CC(C)Nc1nc(Nc2ccnc(C(F)(F)F)c2)nc(-c2cc(O)ccc2F)n1
OUT: 0.1 to 1 µM
